log2 fold change of degron read counts: recorded values
Biological target: T1, CRBN, Q96SW2;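 also: pooled lentiviral library of zinc finger degron-EGFP fusions in mCherry-positive Jurkat cells, FACS-sorted after compound exposure, with degron abundance counted by next-generation sequencing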
T1 chain: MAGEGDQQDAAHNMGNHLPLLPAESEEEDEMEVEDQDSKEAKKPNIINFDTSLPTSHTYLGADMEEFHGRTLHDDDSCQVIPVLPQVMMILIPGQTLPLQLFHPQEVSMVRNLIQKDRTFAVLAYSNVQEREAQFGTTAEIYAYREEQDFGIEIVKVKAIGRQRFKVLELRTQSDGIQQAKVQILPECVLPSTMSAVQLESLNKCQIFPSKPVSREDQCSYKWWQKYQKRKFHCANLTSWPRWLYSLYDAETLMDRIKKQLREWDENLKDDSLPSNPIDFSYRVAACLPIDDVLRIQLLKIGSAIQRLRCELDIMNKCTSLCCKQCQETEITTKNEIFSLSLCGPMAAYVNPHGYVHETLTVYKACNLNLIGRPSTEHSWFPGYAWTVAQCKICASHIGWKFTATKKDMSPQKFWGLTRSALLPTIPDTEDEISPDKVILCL
Test: log2 fold change of degron read counts, EGFP-low vs EGFP+ sorted cells (limma voom), compound-induced degradation; higher = more compound-induced degradation of the degron-EGFP fusion; degrons are variants of IKZF1/3 zinc finger 2; compound dose not given here
Settings: Jurkat; 18 h; compound: thalidomide
Over roughly 8,300 sequences, “log2 fold change of degron read counts, EGFP-low vs EGFP+ sorted cells (limma voom), compound-induced degradation” has its median near -1.1; the highest 2% begin near 3.2. The list comes from a sample in which the highest values are over-represented; it also holds close analogues and randomly drawn sequences.
The answer should be written as a number, with no unit following it.

>  <entry-sequence>
FCCEVCGARFTQKGNLLRHIKL [46F_47C_49E_50V_52G_53A_54R_55F_67L_, Q9UKT9]

>  <log2 fold change of degron read counts>
2.9

$$$$
>  <entry-sequence>
LHCNQCGFRCTQKGNLLRHIKL [46L_47H_49N_50Q_52G_53F_54R_55C_67L_, Q9UKT9]

>  <log2 fold change of degron read counts>
-1.61

$$$$
>  <entry-sequence>
FECDQCGANFTQKGNLLRHIKL [46F_47E_49D_50Q_52G_53A_54N_55F_67L_, Q9UKT9]

>  <log2 fold change of degron read counts>
-1.86

$$$$
>  <entry-sequence>
FSCDVCGATFTQKGNLLRHIKL [46F_47S_49D_50V_52G_53A_54T_55F_67L_, Q9UKT9]

>  <log2 fold change of degron read counts>
-0.694

$$$$
>  <entry-sequence>
FDCNVCGAYFTQKGNLLRHIKL [46F_47D_49N_50V_52G_53A_54Y_55F_67L_, Q9UKT9]

>  <log2 fold change of degron read counts>
-0.686

$$$$

Fill blank: measured log2 fold change of degron read counts of the sequence FCCDICGARFTQKGNLLRHIKL [46F_47C_49D_50I_52G_53A_54R_55F_67L_, Q9UKT9] is ____. 1.57

Could you do the same for FECEICGANFTQKGNLLRHIKL [46F_47E_49E_50I_52G_53A_54N_55F_67L_, Q9UKT9] , please? 2.43

Can you handle FDCDICGARFTQKGNLLRHIKL [46F_47D_49D_50I_52G_53A_54R_55F_67L_, Q9UKT9] next? -0.0241

// query: FCCEVCGAMFTQKGNLLRHIKL [46F_47C_49E_50V_52G_53A_54M_55F_67L_, Q9UKT9] 0.852

And FYCEVCGARFTQKGNLLRHIKL [46F_47Y_49E_50V_52G_53A_54R_55F_67L_, Q9UKT9] ? 1.95
